Experiment Notes: Cmax in Balb/C mouse at 10 mg/kg, po
Assay type: ADME, organism-based
Parameters: dose 10 mg/kg, route oral
Assay Context: in vivo
Property: Cmax (µM)
Provide the reading as a plain figure in µM.

Q: Please report the recorded Cmax for N#Cc1cnc2ccc(-c3c(-c4ccc(F)c(Cl)c4)ncn3CCO)nn12 .
Ans: 16

---

Experiment Notes: Half life in Beagle dog at 1 mg/kg, iv
Type: ADME, organism-based, Canis lupus familiaris
Assay Context: in vivo
Property: half-life (h)
Give the number; h is assumed, so skip it.

Q: Quick one: half-life of N#Cc1cnc2ccc(-c3c(-c4ccc(F)c(Cl)c4)ncn3CCO)nn12 ?
Ans: 5

---

Target Entity: TGF-beta receptor type-1 (Homo sapiens)
Sequence (P36897 whole entry): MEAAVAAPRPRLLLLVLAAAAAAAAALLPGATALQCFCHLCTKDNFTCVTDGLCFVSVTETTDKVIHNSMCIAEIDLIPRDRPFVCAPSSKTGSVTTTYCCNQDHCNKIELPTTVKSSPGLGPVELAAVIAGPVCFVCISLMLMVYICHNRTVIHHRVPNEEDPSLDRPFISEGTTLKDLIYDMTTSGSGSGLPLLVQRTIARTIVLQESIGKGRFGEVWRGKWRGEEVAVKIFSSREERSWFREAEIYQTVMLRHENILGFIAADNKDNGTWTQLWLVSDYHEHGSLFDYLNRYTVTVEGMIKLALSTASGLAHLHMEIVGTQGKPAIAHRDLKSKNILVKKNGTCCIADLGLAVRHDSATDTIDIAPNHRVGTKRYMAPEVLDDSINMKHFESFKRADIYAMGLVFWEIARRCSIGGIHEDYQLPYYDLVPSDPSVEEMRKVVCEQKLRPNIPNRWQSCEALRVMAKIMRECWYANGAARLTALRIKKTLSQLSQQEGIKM
Experiment Notes: Inhibition of TGFbetaR1 in TGFbeta-stimulated human T cells assessed as reduction in SMAD3 phosphorylation preincubated for 1 hr followed by TGFbeta-stimulation for 90 mins by Alphalisa assay
Property: pIC50
Answer as the number alone; pIC50 is minus log10 of concentration in mol/L.

Q: Notebook entry, TGF-beta receptor type-1 (Homo sapiens) assay: pIC50 of N#Cc1cnc2ccc(-c3c(-c4ccc(F)c(Cl)c4)ncn3CCO)nn12 = ?
Ans: 6.82

---

Experiment Notes: Oral bioavailability in Sprague Dawley rat at 10 mg/kg
Type: ADME, organism-based
Assay Context: in vivo
Property: bioavailability

Q: I have this molecule here, N#Cc1cnc2ccc(-c3c(-c4ccc(F)c(Cl)c4)ncn3CCO)nn12 , and I need its recorded bioavailability.
Ans: > 100%

---

Experiment Notes: Half life in mouse liver microsomes in presence of NADPH
Format: ADME, Microsome
Property: half-life (min)
Report as a plain number; the unit min is understood.

Q: What value of half-life has been recorded for this entry: N#Cc1cnc2ccc(-c3c(-c4ccc(F)c(Cl)c4)ncn3CCO)nn12
Ans: 28

---

Experiment Notes: MRT in Sprague Dawley rat at 5 mg/kg, iv
Type: ADME, organism-based
Assay Context: in vivo
Property: MRT (h)
API: value field is a number in h; no unit string.

Q: Can you look up the measured MRT of N#Cc1cnc2ccc(-c3c(-c4ccc(F)c(Cl)c4)ncn3CCO)nn12 for me?
Ans: 7.2

---

Target Entity: Cytochrome P450 1A2 (Homo sapiens)
Sequence (P05177 whole entry): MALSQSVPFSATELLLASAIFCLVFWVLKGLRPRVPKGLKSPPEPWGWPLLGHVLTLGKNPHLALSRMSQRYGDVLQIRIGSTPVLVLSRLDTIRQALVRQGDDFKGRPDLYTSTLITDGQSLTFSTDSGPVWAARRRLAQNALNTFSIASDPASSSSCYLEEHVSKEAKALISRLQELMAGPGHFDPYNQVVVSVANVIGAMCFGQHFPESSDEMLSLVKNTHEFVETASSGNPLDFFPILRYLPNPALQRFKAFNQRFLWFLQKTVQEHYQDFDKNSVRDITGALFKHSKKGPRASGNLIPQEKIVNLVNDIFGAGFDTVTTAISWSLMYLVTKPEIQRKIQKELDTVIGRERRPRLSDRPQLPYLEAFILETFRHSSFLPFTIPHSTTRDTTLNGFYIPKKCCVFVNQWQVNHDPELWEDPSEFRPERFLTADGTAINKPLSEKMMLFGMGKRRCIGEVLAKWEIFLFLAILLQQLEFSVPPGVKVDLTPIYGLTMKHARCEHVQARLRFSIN
Experiment Notes: Inhibition of recombinant CYP1A2 (unknown origin)
Property: IC50

Q: Dear colleague, I am looking for the recorded IC50 of the following compound: N#Cc1cnc2ccc(-c3c(-c4ccc(F)c(Cl)c4)ncn3CCO)nn12
Ans: > 20 µM
